The values you see were collected from patent US20250145722A1.

TARGET OR SYSTEM: T1, human Galectin-3 (Gal3), full-length recombinant (human, UniProt P17931 2-250)
T1 construct: treated here as one molecule; also called hGAL3; hGal3
T1 sequence (P17931 2-250 limits assumed): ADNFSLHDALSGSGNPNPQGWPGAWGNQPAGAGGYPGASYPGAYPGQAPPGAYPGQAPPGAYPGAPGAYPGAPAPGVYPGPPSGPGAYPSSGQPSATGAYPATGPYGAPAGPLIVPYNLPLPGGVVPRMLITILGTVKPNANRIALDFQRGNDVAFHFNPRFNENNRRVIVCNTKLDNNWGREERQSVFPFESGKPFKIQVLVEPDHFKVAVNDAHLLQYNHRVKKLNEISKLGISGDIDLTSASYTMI
ASSAY REMARKS: blocking ELISA, Gal3 coated, biotin-Abeta42 peptide
Measured % blocking of Gal3-Abeta42 peptide binding accompanies every entry in the list below.
REPORTED ENDPOINT: % blocking of Gal3-Abeta42 peptide binding

binder="F846TC.14A2 (antibody, human IgG4 S228P, kappa, V domains shown, also called 846T.14A2; 846.14A2) VH: QIQLVQSGPELKKPGETVKISCKASGYTFTNYGMNWVKQAPGKGLKWMGWINTYTGEPTYAGDLKGRFAFSLETSASTAYLQINNLKNEDTATYFCVRYTMDYWGQGTSVTVSS VL: QAVVTQESALTTSPGETVTLTCRSSTGAVTTSNYANWVQEKPDHLFTGLIGGINNRVPGVPARFSGSLIGDKAALTITGAQTEDEAIYFCALWYSNHWVFGGGTKLTVLR" val="> 90%"
binder="F847C.11B1 (antibody, human IgG4 S228P, kappa, V domains shown, also called 847.11B1) VH: EVQLQQSGPELVKPGASVKISCKASGNTFTDHNMHWVKQSHGKSLEWIGYIYPYNGGTGYNQKFKSKATLTVDNSSSTVYMELRSLTSEDSAVYYCARGEYDYLAWFAYWGQGTLVTVSA VL: EIVLTQSPASLSVTTGEKVTIRCITSIDIDDDMNWYQQKPGEPPKLLISEGNTLRPGVPSRFSSSGYGTDFVFTIENTLSEDVADYYCLQSDNKPLTFGAGTKLELKR" val="< 46%"
binder="F846TC.14E4 (antibody, human IgG4 S228P, kappa, V domains shown, also called 846T.14E4) VH: QVTLKESGPGILQPSQTLSLTCSFSGFSLSTSGMGVGWIRQPSGKGLEWLAHIWWDDDKYYNTALKSGLTISKDASKNQVFLKIASMDTADTATYYCARNLYDGSYGYYAMDYWGQGTSVTVSS VL: DIVMTQAAFSNPVTLGTSASISCRSSKSLLHTNGITFLYWYLQKPGQSPQPLIYQMSNLASGVPDRFSSSGSGTDFTLRISRVEAEDVGVYYCAQNLELPWTFGGGTKLEINR" val="> 90%"
